pIC50: −log10 of the molar value.
Literature roundup of human DP1 receptor (Homo sapiens) data, read-out pIC50.

> print(dat)
                               smilesrecord  valueobserved
1  COc1ccc(CC(=O)O)cc1Oc1ccc(Cl)cc1CN1CCOC1=O         < 6.00
2  COc1ccc(CC(=O)O)cc1Oc1ccc(C(F)(F)F)cc1CSc1ccccc1         < 6.00
3  Cc1ncc(-c2ccc(Oc3cccc(CC(=O)O)c3)c(CN3C(=O)O[C@H](c4ccccc4)[C@@H]3C)c2)n1C   6.00 to 6.52

Item: COc1ccc(CC(=O)O[C@@H]2O[C@@H](C(=O)O)[C@H](O)[C@@H](O)[C@@H]2O)cc1Oc1ccc(NC(=O)C(C)(C)C)cc1CSC(C)(C)C | System: human DP1 receptor (Homo sapiens) | pIC50: > 6.52

* * *

pIC50: −log10 of the molar value.
Literature roundup of human DP1 receptor (Homo sapiens) data, read-out pIC50.

Use the examples below as a reference point.
> print(dat)
                               smilesrecord  valueobserved
1  CCN(Cc1cc(C(F)(F)F)ccc1-c1cncc(CC(=O)O)c1)C(=O)OCc1ccccc1         < 6.00
2  CCN(Cc1cc(C(F)(F)F)ccc1-c1cc(CC(=O)O)ccc1OC)C(=O)NCc1cc(Cl)cc(Cl)c1         < 6.00
3  O=C(O)Cc1cccc(Oc2ccc(Br)cc2CSCc2ccccc2)c1         > 6.52

Next, consider the following compound.
Item: O=C(O)Cc1cccc(Oc2ccc(Br)cc2CS(=O)(=O)Cc2ccccc2)c1 | System: human DP1 receptor (Homo sapiens) | pIC50: 6.00 to 6.52

* * *

Literature roundup of UniProt Q13258 data, read-out IC50.

> print(dat)
                                   compound  valueobserved
1  C[C@H]1[C@@H](c2ccccc2)OC(=O)N1Cc1cc(-c2nccn2C)ccc1Oc1cccc(CC(=O)O)c1    0.3 to 1 µM

Item: COc1ccc(CC(=O)O)cc1-c1ccc(C(F)(F)F)cc1CN(C(=O)OCc1ccccc1)C1CCCC1 | System: UniProt Q13258 | IC50: 0.3 to 1 µM

Item: CC(C)(C)SCc1cc(NC(=O)C(C)(C)C)ccc1Oc1cc(CC(=O)O)ccc1O | System: UniProt Q13258 | IC50: < 0.3 µM

Item: COc1ccc(CC(=O)O)cc1Oc1ccc(NC(=O)C(C)(C)C)cc1CSC(C)(C)C | System: UniProt Q13258 | IC50: > 1 µM

Item: COc1ccc(CC(=O)O)cc1Oc1ccc(-c2cn[nH]c2)cc1CN1C(=O)O[C@H](c2ccccc2)[C@@H]1C | System: UniProt Q13258 | IC50: > 1 µM

Item: COc1ccc(CC(=O)O)cc1Oc1ccc(-c2ccccc2OC)cc1CN1C(=O)O[C@H](c2ccccc2)[C@@H]1C | System: UniProt Q13258 | IC50: > 1 µM

Item: NC(=O)CN(C1CCc2c(c3ccccc3n2CCC(=O)O)C1)S(=O)(=O)c1ccc(F)cc1 (stereo not shown) | System: UniProt Q13258 | IC50: > 1 µM
